test: in vitro; conditions: PAMPA, pH 7.4
Papp by entry:
measurement_name: Papp (×10⁻⁶ cm/s)

{"molecule": "O=C(NCCc1ccncc1)C1CCN(C(=O)c2cc3cc(F)ccc3n2Cc2ccc(Cl)cc2)CC1 [29i]", "measurement_name": "Papp", "value_unit": "×10⁻⁶ cm/s", "experimental_result": 77.6}
{"molecule": "COCCn1c(C(=O)N2CCC(C(=O)N(C)Cc3ccccc3)CC2)cc2ccccc21 [28f]", "measurement_name": "Papp", "value_unit": "×10⁻⁶ cm/s", "experimental_result": 40.7}
{"molecule": "O=C(NCCc1ccncc1)C1CCN(C(=O)c2cccn2Cc2ccc(Cl)cc2)CC1 [29a]", "measurement_name": "Papp", "value_unit": "×10⁻⁶ cm/s", "experimental_result": 9.77}
{"molecule": "CN(CCc1ccncc1)C(=O)C1CCN(C(=O)c2cc3ccccc3n2Cc2ccc(Cl)cc2)CC1 [27m]", "measurement_name": "Papp", "value_unit": "×10⁻⁶ cm/s", "experimental_result": 61.7}
{"molecule": "O=C(NCCCc1ccncc1)C1CCN(C(=O)c2cc3ccccc3n2Cc2ccc(Cl)cc2)CC1 [27j]", "measurement_name": "Papp", "value_unit": "×10⁻⁶ cm/s", "experimental_result": 77.6}
{"molecule": "O=C(NCCc1ccncc1)C1CCN(C(=O)c2cc3ccncc3n2Cc2ccc(Cl)cc2)CC1 [29j]", "measurement_name": "Papp", "value_unit": "×10⁻⁶ cm/s", "experimental_result": 3.02}
{"molecule": "O=C(NCCc1ccncc1)C1CCN(C(=O)NCCc2ccc(Cl)cc2)CC1 [29d]", "measurement_name": "Papp", "value_unit": "×10⁻⁶ cm/s", "experimental_result": 14.1}

----------
FMV Viability (% uninfected control) by entry:
tested on: Fort Morgan virus (FMV); conditions: 25 µM

{"compound": "O=C(NCCc1ccncc1)C1CCN(C(=O)c2cccn2Cc2ccc(Cl)cc2)CC1 [29a]", "assayed_target": "Fort Morgan virus (FMV)", "value_unit": "% uninfected control", "FMV Viability (% uninfected control)": 63.0}
{"compound": "C[C@@H](NC(=O)C1CCN(C(=O)c2cc3ccccc3n2Cc2ccc(Cl)cc2)CC1)c1ccccc1", "assayed_target": "Fort Morgan virus (FMV)", "value_unit": "% uninfected control", "FMV Viability (% uninfected control)": 47.4}
{"compound": "O=C(NCCc1ccncc1)C1CCN(C(=O)c2cc3ccccc3n2Cc2ccc(Cl)cc2)CC1 [27g]", "assayed_target": "Fort Morgan virus (FMV)", "value_unit": "% uninfected control", "FMV Viability (% uninfected control)": 71.9}
{"compound": "CC(NC(=O)C1CCN(C(=O)c2cc3ccccc3n2Cc2ccc(Cl)cc2)CC1)c1ccncc1 (stereo not shown) [27a]", "assayed_target": "Fort Morgan virus (FMV)", "value_unit": "% uninfected control", "FMV Viability (% uninfected control)": 68.2}

----------
assay: in vitro
CC50 by entry:
measurement_name: CC50

{"compound": "O=C(NCCc1ccncc1)C1CCN(C(=O)NCCc2ccc(Cl)cc2)CC1 [29d]", "experimental_result": "> 100 µM"}
{"compound": "CN1CCC(CNC(=O)C2CCN(C(=O)c3cc4ccccc4n3Cc3ccc(Cl)cc3)CC2)CC1 [27d]", "experimental_result": "> 50 µM"}
{"compound": "O=C(NCCc1ccncc1)C1CCN(C(=O)c2cccn2Cc2ccc(Cl)cc2)CC1 [29a]", "experimental_result": "> 100 µM"}
